Data provenance: the supplement of paper PMC8728848

molecular target: Neu5Ac(a2-3)Gal(b1-4)GlcNAc6S; assay: glycan array binding signal (z-score within array); higher = stronger binding; conditions: glycan notation: IUPAC condensed, linker removed
Shown is part of a subset that was picked to be rich in the strongest signals.
For each of the binders below, state its glycan array binding signal (z-score).
Form field (numeric): enter value without unit.

Exam item: Recorded glycan array binding signal (z-score) for CBM40 CPF071 (Clostridium perfringens) (protein) MAHHHHHHVGTGSNDDDDKSPDPMLSSLGEYKDINLESSNASNITYDLEKYKNLDEGTIVVRFNSKDSKIQSLLGISNSKTKNGYFNFYVTNSRVGFELRNQKNEGNTQNGTENLVHMYKDVALNDGDNTVALKIEKNKGYKLFLNGKMIKEVKDTNTKFLNNIENLDSAFIGKTNRYGQSNEYNFKGNIGFMNIYNEPLGDDYLLSKTGETK , please?
Marked response: 5.07

Exam item: For the binder shown here, Mg1lysM (Mycosphaerella graminicola) (protein) QRNPITITPQFDCGATNSQQYVARSGDTLTKIAQEIYHDVVGVCDIARANNLADPNRIDAGTPYTIPINCQTYDRNSCL , give the reported glycan array binding signal (z-score).
Marked response: -0.075

Exam item: Could you share which glycan array binding signal (z-score) value was measured for Epa3to1 (Candida glabrata) (protein) MGSSHHHHHHSSGLVPRGSHMKRELSSQNPFGYPIGCSPQDVAIIPGLTMELYSYPIVSGTPPNCYDASYVDPEYPRTGYLKRKMVGKSTGVTGNLNYKYSVEKACMVKYGNLPAGYNYNEPLTVSNFTMILYGYFKAQTTGLHTFFVNADDLLYINFGAGNAFDCCKREDSKTKLGEYVAYDIWHVDSSKNKVSLFLEKDLYYPIRMFFNNREYDSSLDLSFSVNGATDQISDFSGYLYSVPDQPDTCPAHIGYDTTCR ?
Marked response: -0.83
